- Test system: HepG2-TP53BP1-CLTA
- test.name: phenotypically active (imaging signature differs from DMSO and reproducible) at any of 0.3-9 uM (binary (1 = active, 0 = inactive)); higher = active
- cond: treatment time: 24 h
Assign a class; possible classes are active, inactive

compound | assayed.target | classification
CC(=O)OCC(=O)[C@@]12OC3(CCCC3)O[C@@H]1C[C@H]1[C@@H]3CCC4=CC(=O)C=C[C@]4(C)[C@@]3(F)[C@@H](O)C[C@@]12C [amcinonide] | HepG2-TP53BP1-CLTA | inactive
COc1cc(C=O)c([N+](=O)[O-])cc1OC | HepG2-TP53BP1-CLTA | inactive
COc1ccc2c3c1O[C@H]1C[C@@H](O)C=C[C@@]31CCN(C)C2 | HepG2-TP53BP1-CLTA | inactive
Cc1cc(-c2ccc(/C=C3\S/C(=N\c4ccc(Cl)c(C(=O)O)c4)NC3=O)o2)c([N+](=O)[O-])cc1C | HepG2-TP53BP1-CLTA | inactive
c1ccc(-c2cnn3cc(-c4ccc(OCCN5CCOCC5)cc4)cnc23)cc1 | HepG2-TP53BP1-CLTA | inactive
O=C(Nc1ccccc1)N1CCN(c2nc(-c3ccccc3)ns2)CC1 | HepG2-TP53BP1-CLTA | active
CCCCCCCCCN1C[C@H](O)[C@@H](O)[C@H](O)[C@H]1CO | HepG2-TP53BP1-CLTA | inactive

Hi, sorry to bother you, what did the test record for COc1ccc(CC2c3cc(OC)c(OC)cc3CC[N+]2(C)CCC(=O)OCCCCCOC(=O)CC[N+]2(C)CCc3cc(OC)c(OC)cc3C2Cc2ccc(OC)c(OC)c2)cc1OC (stereo not drawn) [Atracurium besilate] ?
inactive

Sourced from the supplement of paper PMC7411054
